Values compiled from the RNAGym collection of RNA variant scans (doi:10.1101/gad.245936.114).

B1: tRNA (parent)
chain: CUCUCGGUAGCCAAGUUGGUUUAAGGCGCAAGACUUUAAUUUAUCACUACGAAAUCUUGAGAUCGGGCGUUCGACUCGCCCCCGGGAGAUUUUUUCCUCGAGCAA

variants of: B1; assay: nonsense suppression (GFP-seq) (ratio to wild type); higher = more function; SUP4oc tRNA, yeast GFP reporter sort-seq
This sample holds only a part of the variants without activity.
Measured Metric: nonsense suppression

>>> print(df.to_string())
                         mutation_spec  result_modifier  reported_measurement
 0                           A24U U63C                =                0.0344
 1                   C1U G6C G10U U58C                ≤                 0.026
 2                            U4G U22G                =                 0.492
 3                            G6A A24U                =                0.0308
 4                           A24C C81U                =                   0.2
 5                           C11G A30U                ≤                 0.026
 6                            A9G C27U                =                0.0421
 7                           G78U G84A                =                0.0428
 8                           G67C C79G                =                  1.03
 9                 A13G C29G G61U U70G                ≤                 0.026
10                           U17G C83A                ≤                 0.026
11                           G18A A30U                =                0.0262
12                      U22C A30U C83A                ≤                 0.026
13                           U17G G67A                =                0.0593
14                      U70C A74G A87C                ≤                 0.026
15            A23U U55C A60C G69U G85C                ≤                 0.026
16                           U17A U76C                =                  1.06
17                           A23U U63A                =                 0.207
18                           G84A G88U                ≤                 0.026
19  C11A C12A U17G U22G G66A U76C A89C                ≤                 0.026
20       G26U C27G A30G U57G C64U G65C                ≤                 0.026
21                            U2A G73A                =                0.0508
22                  A9C A31G C68G G86A                ≤                 0.026
23                            C5U U17C                =                0.0495
24                           G73A A89C                =                0.0768
25                           A30G G85A                =                 0.793
26                            A9U C81U                =                0.0272
27                           A14U G86A                ≤                 0.026
28                           A31G C34U                ≤                 0.026
29                           G28A A31G                =                  0.98
30                            C3U A33U                =                 0.027
31                      U21C C29U G61U                =                 0.518
32                      G19U C29A G59A                ≤                 0.026
33                           A23G G73A                =                0.0291
34                      A13U U16G C82U                =                 0.377
35                           G10A C27U                ≤                 0.026
36                 G10C U35A G66C G85U                ≤                 0.026
37                           G19C U71C                ≤                 0.026
38                 A13U U21A U35C G84U                ≤                 0.026
39                 U16A G19C U70G C72G                ≤                 0.026
40                           U16C G73A                =                  1.22
41                             U4A A9U                =                   0.2
42                                G61U                =                  1.03
43                         U2A U4A G7A                ≤                 0.026
44                            A9C U17G                =                 0.595
45                           U63C U76C                =                 0.693
